# RUN DESCRIPTION: yeast display, Sf9 membrane polyspecificity reagent, FACS + sequencing; frameworks hold sequencing errors

BIOSEQUENCE: QVQLVESGGGLVQAGGTLRLSCAASGRIFGYNAMGWYRQAPGKERELVAVISTSGTIRYYADSVKGRFTISRVNAKNTVYLQMKSLKPEDTAVYYCAARYYQRANGFGYWGQGTQVTVSS
polyreactivity (PSR sort gate): low polyreactivity
//
BIOSEQUENCE: QVQLVESGGGLVQAGGSLRISCAASGSTFRGYAMGGYRQAPGKERDLVAAMSSNGDRTFYADSVKGRFTISRDNAMNTVYLLMNSLKAEDTAVYYCNAVYSGSWQLYGYWGQGSQVTVSS
polyreactivity (PSR sort gate): high polyreactivity
//
BIOSEQUENCE: QVQLVEAGGGLVQAGGSLRLCCAASGSTFVHYAMGWYRQAPGKERELVAAITTSGTGTFYADSVKGRFTISRENAKNNVYLQMNSLKPEETAVNYCAADIYPVWIYLLYVYWGQGTQVTVSS
polyreactivity (PSR sort gate): low polyreactivity
//
BIOSEQUENCE: QVKLVESGGGLVQAGGSLRLSCAASGFIFAHYAMGWYRQAPGKERELVAAIRGGDGSTDYADSVKGRFTISRDNAKNTVYLQMNSLIPEDTAVYYCAKRGKRSRGVGGNYWGQGTQVTVSS
polyreactivity (PSR sort gate): low polyreactivity
//
BIOSEQUENCE: QVQLVESGGGLVQAGGRLRLSCAASGITFYHYAMGWYRQAPGKERELVAAITRSGGRTYYAVSVKGRFTISRDTANNTVYVEMYSLKPEVTAVYYSAARWQKTAGRYYYWGQGTQVTGSS
polyreactivity (PSR sort gate): high polyreactivity

* * *

# RUN DESCRIPTION: yeast display, Sf9 membrane polyspecificity reagent, FACS + sequencing; frameworks hold sequencing errors

BIOSEQUENCE: QVQLVESGGGLVQAGGSLRLSCGASGSIFVNKAMGWYRPAPGKERELVAAISSRSSRTFYADSVKGRFTISRDHAKNTVYLKMNILKPEDTEVYSCAVKKRAPDGDYWGQGTQVTVSS
polyreactivity (PSR sort gate): high polyreactivity
--
BIOSEQUENCE: QVQLVESGGGLVQAGGSLRLSCASSGRTFYSYVMGWYRQAHGKERELVAGISKRGGRTYYADSVKGRFTISRDNAKNTVYLEMYSLKPEDTAVYFCADDFPHTYWTFDFDYWGQGTQVTVSS
polyreactivity (PSR sort gate): high polyreactivity
--
BIOSEQUENCE: QVQLVESGGGLVQAGGSLRLSCAASGFIFGYYAMGWYRQAPGKERELVAAISGDAGRTYYADSVKGRFTISRDNAKNTVYLQMNSLKPEDTAVYYCAAADTYKMDYWGQGTQVTVSS
polyreactivity (PSR sort gate): low polyreactivity
--
BIOSEQUENCE: QVQLVESGGGLVQAGGSLRLSCAASGRTFIVNTMRWYRQAPGKDRELVAAITARGGRTYYADSEKGRFTISRDNAKNTVYLQLNSLKPEDTAVYYCNARTPPREAERYYWGQGTQVTVSS
polyreactivity (PSR sort gate): low polyreactivity
--
BIOSEQUENCE: QVQLVESGGGLVQAGGSLRLSCAASGRIFDRKAMGWYRQAPGKERELVAAISSRDGSTYYADSVKGRFTISRDNAKNTVYLQMNSLKPEDTGVYYCNRVSRGPVGGYYWGQGTQVTVSS
polyreactivity (PSR sort gate): high polyreactivity

The origin of these recorded values is the nanobody polyreactivity screen of Harvey et al. (2022).
